# Measured target: UniProt:Q9NYK1
# Sequence (Q9NYK1 whole entry): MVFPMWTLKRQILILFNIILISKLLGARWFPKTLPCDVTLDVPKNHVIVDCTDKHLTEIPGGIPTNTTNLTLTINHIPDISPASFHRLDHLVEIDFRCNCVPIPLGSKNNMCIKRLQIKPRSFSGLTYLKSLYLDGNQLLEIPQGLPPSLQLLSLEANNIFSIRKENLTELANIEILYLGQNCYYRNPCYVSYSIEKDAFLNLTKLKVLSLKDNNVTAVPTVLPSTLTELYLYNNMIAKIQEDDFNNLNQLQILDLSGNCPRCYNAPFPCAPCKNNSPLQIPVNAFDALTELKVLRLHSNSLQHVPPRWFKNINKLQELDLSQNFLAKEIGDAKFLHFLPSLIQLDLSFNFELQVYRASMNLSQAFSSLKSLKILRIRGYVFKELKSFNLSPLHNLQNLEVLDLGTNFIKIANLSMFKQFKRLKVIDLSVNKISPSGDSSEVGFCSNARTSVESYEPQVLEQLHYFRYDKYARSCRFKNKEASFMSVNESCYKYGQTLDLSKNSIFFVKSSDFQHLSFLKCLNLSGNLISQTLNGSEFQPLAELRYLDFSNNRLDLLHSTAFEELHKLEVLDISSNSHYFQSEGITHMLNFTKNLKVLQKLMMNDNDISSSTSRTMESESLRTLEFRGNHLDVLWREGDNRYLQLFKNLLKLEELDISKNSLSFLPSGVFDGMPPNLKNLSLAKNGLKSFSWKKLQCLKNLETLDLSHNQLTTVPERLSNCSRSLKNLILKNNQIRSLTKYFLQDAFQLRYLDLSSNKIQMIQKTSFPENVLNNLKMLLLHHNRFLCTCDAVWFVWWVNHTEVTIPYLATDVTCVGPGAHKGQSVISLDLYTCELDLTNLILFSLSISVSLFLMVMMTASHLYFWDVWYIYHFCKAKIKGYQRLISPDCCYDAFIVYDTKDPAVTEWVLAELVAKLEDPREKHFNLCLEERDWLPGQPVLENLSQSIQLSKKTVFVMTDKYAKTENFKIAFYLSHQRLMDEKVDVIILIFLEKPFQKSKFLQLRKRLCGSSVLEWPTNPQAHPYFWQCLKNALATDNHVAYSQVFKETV
# Assay method text: Antagonist activity at human TLR7 expressed in HEK-blue-HTLR7 cells assessed as inhibition of CL264-induced NFkappaB activation measured after overnight incubation by SEAP-based spectrophotometry assay
Observable: IC50

CCN1CCN(CCCn2cnc3c(N4CCN(C(=O)c5ccccc5)CC4)nc(NCc4ccc(F)cc4)nc32)CC1 : > 30 µM

Note: attention shifts to another entry.
Ask: Item under review: CCN1CCN(CCCn2cnc3c(N4CCN(C5CCCC5)CC4)nc(NCc4ccc(F)cc4)nc32)CC1 . Reported IC50?
Result: > 30 µM

----------
# Measured target: Toll-like receptor 9 (Homo sapiens, UniProt Q9NR96)
# Sequence (Q9NR96 whole entry): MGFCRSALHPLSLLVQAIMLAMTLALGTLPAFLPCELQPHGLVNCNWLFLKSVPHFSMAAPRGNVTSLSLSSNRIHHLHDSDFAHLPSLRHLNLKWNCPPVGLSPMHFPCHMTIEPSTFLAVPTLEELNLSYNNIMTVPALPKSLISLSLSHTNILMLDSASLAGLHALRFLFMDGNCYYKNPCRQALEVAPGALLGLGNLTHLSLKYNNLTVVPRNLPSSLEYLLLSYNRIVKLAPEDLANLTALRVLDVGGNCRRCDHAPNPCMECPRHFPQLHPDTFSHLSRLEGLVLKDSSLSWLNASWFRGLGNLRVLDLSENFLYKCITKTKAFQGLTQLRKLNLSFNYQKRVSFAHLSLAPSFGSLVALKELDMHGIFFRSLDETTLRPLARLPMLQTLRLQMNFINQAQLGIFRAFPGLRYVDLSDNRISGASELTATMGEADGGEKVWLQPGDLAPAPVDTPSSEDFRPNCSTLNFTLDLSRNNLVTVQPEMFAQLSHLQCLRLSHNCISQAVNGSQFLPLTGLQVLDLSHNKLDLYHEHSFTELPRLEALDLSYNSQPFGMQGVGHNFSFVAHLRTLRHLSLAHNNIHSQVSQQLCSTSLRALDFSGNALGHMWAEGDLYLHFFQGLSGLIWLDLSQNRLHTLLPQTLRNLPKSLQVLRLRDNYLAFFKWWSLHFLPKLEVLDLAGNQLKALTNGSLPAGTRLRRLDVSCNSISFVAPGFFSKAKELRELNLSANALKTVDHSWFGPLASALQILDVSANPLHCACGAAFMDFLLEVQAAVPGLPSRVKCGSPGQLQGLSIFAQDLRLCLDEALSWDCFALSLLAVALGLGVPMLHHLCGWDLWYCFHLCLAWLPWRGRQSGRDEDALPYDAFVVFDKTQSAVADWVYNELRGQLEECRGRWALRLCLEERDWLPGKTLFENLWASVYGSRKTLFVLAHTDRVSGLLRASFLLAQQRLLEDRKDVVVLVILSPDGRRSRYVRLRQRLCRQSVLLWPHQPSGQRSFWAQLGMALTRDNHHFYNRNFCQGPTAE
# Assay method text: Antagonist activity at human TLR9 expressed in […] cells assessed as inhibition of CpGB-induced NFkappaB activation measured after overnight incubation by SEAP-based spectrophotometry assay
Observable: IC50 (nM)
Entry rule: numbers only, all in nM.

Ask: Item under review: CCN1CCN(CCCn2cnc3c(N4CCN(C5CCCC5)CC4)nc(N)nc32)CC1 . Reported IC50?
Result: 280

Ask: Item under review: CCN1CCN(CCCn2cnc3c(N4CCN(C5CCCC5)CC4)nc(NCc4ccc(F)cc4)nc32)CC1 . Reported IC50?
Result: 250

Ask: Item under review: CCN1CCN(CCCn2cnc3c(N4CCN(CC)CC4)ncnc32)CC1 . Reported IC50?
Result: 1190

Ask: Item under review: CCN1CCN(CCCn2cnc3c(N4CCN(CC)CC4)nc(N)nc32)CC1 . Reported IC50?
Result: 260

Ask: Item under review: CCN1CCN(CCCn2cnc3c(N4CCN(C5CCCC5)CC4)nc(NCc4ccc(N(CC)CC)cc4)nc32)CC1 . Reported IC50?
Result: 150
